# Lookup of reported inhibition keyed by entry
Test: UWB1.289 ovarian carcinoma cell growth inhibition, synergistic combos for chromothripsis tumors, BGB or cisplatin combos (AID 1671456);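 note: cells exposed to compound for four days; 0% = vehicle DMSO and 100% = killing by high DMSO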
Settings: UWB1.289 ovarian carcinoma cells, at 0.5 µM, stronger effect = higher value
Expressed in %, but write only the number.

For orientation, consider the following solved cases.
CCn1cc(C(=O)O)c(=O)c2cc(F)c(N3CCNCC3)cc21 ... 3.04
O=C1c2c(O)ccc(O)c2C(=O)c2c(NCCNCCO)ccc(NCCNCCO)c21 ... 64.9
CC(=O)OCC(CCn1cnc2cnc(N)nc21)COC(C)=O ... 5.6

Please fill in: inhibition reported for O=C(O)CCCc1ccccc1 = -4.79

----------
Experiment: HCT116 colon cancer cell growth inhibition, primary screen, CellTiter-Glo luminescence, NPC library (AID 1117342)
Details: at 20 µM (top of the series)
Calls of active or inactive are those of the source.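 How the source made its calls: active means compounds that lower survival of HCT116 colon cancer cells in the luminescence readout, no numeric limit stated; inactive means the rest.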
Return exactly one item of active, inactive

Solved entries:
COc1cc(NC(C)CCCN)c2ncccc2c1 (configuration not stated) ... active
OC[C@H]1O[C@@H]2O[C@H]3[C@H](O)[C@@H](O)[C@@H](O[C@H]4[C@H](O)[C@@H](O)[C@@H](O[C@H]5[C@H](O)[C@@H](O)[C@@H](O[C@H]6[C@H](O)[C@@H](O)[C@@H](O[C@H]7[C@H](O)[C@@H](O)[C@@H](O[C@H]8[C@H](O)[C@@H](O)[C@@H](O[C@H]1[C@H](O)[C@H]2O)O[C@@H]8CO)O[C@@H]7CO)O[C@@H]6CO)O[C@@H]5CO)O[C@@H]4CO)O[C@@H]3CO ... inactive
C[C@H](CCC(=O)O)[C@H]1CC[C@H]2[C@H]3[C@@H](CC[C@]12C)[C@@]1(C)CC[C@@H](O)C[C@H]1C[C@@H]3O ... inactive
Cc1nc(C2CCCCC2)c(-c2ccc(S(N)(=O)=O)c(F)c2)o1 ... inactive
COC(=O)C1=C(C)NC(C)=C(C(=O)OCC(C)=O)C1c1ccccc1[N+](=O)[O-] (configuration not stated) ... inactive

Q: Could you kindly confirm the outcome this assay logged for CCCNCC(O)COc1ccccc1C(=O)CCc1ccccc1 (configuration not stated) ?
Ans: inactive

Q: Could you kindly confirm the outcome this assay logged for C[C@@H](CN(C)C)CN1c2ccccc2Sc2ccccc21 ?
Ans: inactive

----------
Assay: decreased DLD-1 cellular survival, CellTiter-Glo luminescent readout, NPC compound collection, primary HTS (AID 1117346)
Conditions: DLD-1 viability, CellTiter-Glo luminescence; at 20 µM (top of the series)
Active and inactive are the calls of the source.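 The calls were made as follows: active = compounds that lower survival of DLD-1 colon cancer cells in the luminescence readout, no cutoff given; inactive = the rest.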
readout name: viability decrease (inhibition)

For orientation, consider the following solved cases.
Cc1c(C)c2c(c(C)c1OC(=O)c1cccnc1)CC[C@@](C)(CCC[C@H](C)CCC[C@H](C)CCCC(C)C)O2 ... -13.8% (inactive)
O=C(CN1CCN(Cc2ccc3c(c2)OCO3)CC1)N1c2ccccc2Sc2ccccc21 ... 76.8% (active)
N#CCC(=O)NN ... 4.5% (inactive)
CC1(C)O[C@@H]2[C@@H](CO[C@@]3(COS(N)(=O)=O)OC(C)(C)O[C@@H]23)O1 ... -7.1% (inactive)

Please fill in: viability decrease (inhibition) reported for CC(=O)Nc1ccc(OCCOCCOc2ccc(NC(C)=O)cc2)cc1 = -8.2% (inactive)

----------
# Lookup of reported inhibition of viability keyed by entry
Assay: HCT116 colon cancer cell growth inhibition, primary screen, CellTiter-Glo luminescence, NPC library (AID 1117342)
Conditions: at 20 µM (top of the series)
Expressed in %, but write only the number.

For orientation, consider the following solved cases.
CCN(CC)CCOC(=O)c1ccc(N)cc1 ... 4.2
CCCOC(=O)c1ccc(N)cc1 ... 1.8

We next turn to a different compound, shown below.
Please fill in: inhibition of viability reported for CC(C)=CCC/C(C)=C/CC/C(C)=C/CCC(=O)OC/C=C(\C)CCC=C(C)C = 1.5

----------
Assay: HCT116 colon cancer cell growth inhibition, primary screen, CellTiter-Glo luminescence, NPC library (AID 1117342)
Settings: at 20 µM (top of the series)
Active and inactive are the calls of the source.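 How the source made its calls: active means compounds that lower survival of HCT116 colon cancer cells in the luminescence readout, no numeric limit stated; inactive means the rest.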
# Lookup of reported inhibition of viability keyed by entry

CCC(CN)=C(c1ccccc1)c1ccccc1 ... 78.6% (active)
CC(=O)OCC(=O)Nc1cc(C#N)cc(NC(=O)COC(C)=O)c1Cl ... 0.9% (inactive)
CCO[C@@H]1O[C@H](C(COCc2ccccc2)OCc2ccccc2)[C@H](OCc2ccccc2)[C@H]1O (stereo not given in full) ... 81.6% (active)
CC(=O)Oc1ccc(C2(c3ccc(OC(C)=O)cc3)C(=O)Nc3ccccc32)cc1 ... 39% (inactive)
CC(=O)CC(c1ccccc1)c1c(O)c2ccccc2oc1=O (stereo not given) ... -17.8% (inactive)
O=C(/C=C/c1ccc(O)c(O)c1)O[C@@H]1C[C@@](OC(=O)/C=C/c2ccc(O)c(O)c2)(C(=O)O)C[C@@H](O)[C@@H]1O ... 6.6% (inactive)
CC(C)(C)c1ccc2c(S(=O)(=O)O)c(C(C)(C)C)ccc2c1 ... -18.9% (inactive)
CCC(C(=O)O)c1ccc(N2Cc3ccccc3C2=O)cc1 (stereo not given) ... -4.3% (inactive)

Please fill in: inhibition of viability reported for CCCN(CCC)S(=O)(=O)c1ccc(C(=O)O)cc1 = 12.4% (inactive)

Please fill in: inhibition of viability reported for Oc1c(Cl)cc(Cl)c2cccnc12 = 91.3% (active)

----------
Assay: ovarian cancer cell viability with rucaparib, profiling panel, oncology-focused library, rucaparib conditional (AID 1508598)
Settings: patient-derived ovarian cancer cells, CellTiter-Glo viability, 144 h; at 0.313 µM; OCI-C5x cells; with rucaparib 10 µM; stronger effect = lower value; 100% = cells with rucaparib alone
# Lookup of reported viability keyed by entry
Expressed in %, but write only the number.

NC(=O)c1ccc(-c2nc(-c3ccc4c(c3)OCO4)c(-c3ccccn3)[nH]2)cc1 ... 130
O=C1CCC(N2C(=O)c3ccccc3C2=O)C(=O)N1 (centres undefined) ... 114
S=c1nc[nH]c2nc[nH]c12 ... 106

We next turn to a different molecule, shown below.
Please fill in: viability reported for O=c1[nH]cc(F)c(=O)[nH]1 = 121

----------
# Lookup of reported nuclear beta-catenin stimulation keyed by entry
Assay: stimulators of nuclear beta-catenin in C2C12, primary screen, imaging, WNT3A-conditioned medium, mouse C2C12, NPC library (AID 1117326)
Settings: stimulation, at 2 µM, stronger effect = higher value
Expressed in %, but write only the number.

For orientation, consider the following solved cases.
CCCCN(CCCC)C(C(N)=O)c1ccc(OC)cc1 (stereo not given) ... -1.4
Nc1nc(N)c2nc(-c3ccccc3)c(N)nc2n1 ... 4.7

Please fill in: nuclear beta-catenin stimulation reported for CCOC(=O)C(O)c1ccccc1 (stereo not given) = 9.6

Please fill in: nuclear beta-catenin stimulation reported for NC(=O)NS(=O)(=O)c1ccc(Cl)cc1 = 16.9

Please fill in: nuclear beta-catenin stimulation reported for O=C1C(c2[nH]c3ccccc3c2O)=Nc2ccccc21 = 1.4

Please fill in: nuclear beta-catenin stimulation reported for O=C(/C=C/c1ccccc1)OCc1ccccc1 = 0.1

Please fill in: nuclear beta-catenin stimulation reported for Cc1oc(-c2ccccc2)nc1CCC(=O)c1ccc(CC2SC(=O)NC2=O)cc1 (stereo not given) = -0.4

Please fill in: nuclear beta-catenin stimulation reported for CN1CC(O)c2cc(N=NC(N)=O)c(O)cc21 (stereo not given) = 1.3

Please fill in: nuclear beta-catenin stimulation reported for Cc1ccccc1C(OCCN(C)C)c1ccccc1 (stereo not given) = 1.7

Please fill in: nuclear beta-catenin stimulation reported for CCC(CN)=C(c1ccccc1)c1ccccc1 = 0.1

----------
Assay: CellTiter-Glo luminescent readout of SW480 viability loss, NPC library primary (AID 1117343)
Settings: CellTiter-Glo luminescence; at 20 µM (top of the series)
# Lookup of reported viability decrease (inhibition) keyed by entry
Expressed in %, but write only the number.

Please fill in: viability decrease (inhibition) reported for Cc1c(C(=O)NCCO)[n+](=O)c2ccccc2n1[O-] = -17.1

Please fill in: viability decrease (inhibition) reported for CCCCNc1cc(C(=O)O)cc(S(N)(=O)=O)c1Oc1ccccc1 = 2.4

Please fill in: viability decrease (inhibition) reported for C[N+]1(CC2COC(c3ccccc3)(C3CCCCC3)O2)CCCCC1 (stereo not given) = 7.6

Please fill in: viability decrease (inhibition) reported for C=CCN1CCc2nc(N)sc2CC1 = 2.6

Please fill in: viability decrease (inhibition) reported for COc1ccc(CC2c3cc(OC)c(OC)cc3CCN2CCC(=O)OCCCCCOC(=O)CCN2CCc3cc(OC)c(OC)cc3C2Cc2ccc(OC)c(OC)c2)cc1OC (stereo not given) = 39.7

----------
Assay: CellTiter-Glo luminescent readout of SW480 viability loss, NPC library primary (AID 1117343)
Conditions: CellTiter-Glo luminescence; at 20 µM (top of the series)
Calls of active or inactive are those of the source.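 Rule for the calls: active = compounds that lower viability of the colon cancer cells in the luminescence readout, with no numeric limit stated; inactive = the rest.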
readout name: viability decrease (inhibition)

For orientation, consider the following solved cases.
CCCc1c2oc(C(=O)O)cc(=O)c2cc2c(=O)cc(C(=O)O)n(CC)c12 ... 34.6% (inactive)
O=C(N/N=C/c1ccccc1O)c1ccncc1 ... 106% (active)

Please fill in: viability decrease (inhibition) reported for CC(C)C[C@H](NC(=O)CNC(=O)[C@H](Cc1ccc(O)cc1)NC(=O)[C@H](CO)NC(=O)[C@H](Cc1c[nH]c2ccccc12)NC(=O)[C@H](Cc1cnc[nH]1)NC(=O)[C@@H]1CCC(=O)N1)C(=O)N[C@@H](CCCN=C(N)N)C(=O)N1CCC[C@H]1C(=O)NCC(N)=O (stereo in doubt) = 11.3% (inactive)

Please fill in: viability decrease (inhibition) reported for CCCCCCCCC=CCCCCCCCC(=O)NCCOC(=O)CC(C(=O)O)S(=O)(=O)O (centres undefined) = 63.4% (active)
